Test system: A549/ATCC NSCLC
procedureDetails: NCI-60 one-dose screen, 48 h (100 = growth as untreated, 0 = no growth, -100 = all killed)
conditionDetails: 10 µM unless noted
About 83,000 compounds went through this panel and 20% of them were active in at least one assay; those are over-represented in the sample as a whole.
Reported growth values for the following compounds.

{"columns": ["compound", "experimentalTarget", "scaleUnit", "growth"],
 "data": [
  ["COc1ccc(-c2nn(-c3ccc(NC(=O)c4cc(C(F)(F)F)cc(C(F)(F)F)c4)cc3)cc2-c2ccncc2)cc1Cl", "A549/ATCC NSCLC", "%", 59.5],
  ["CC(C)C(=O)Nc1nc2c(s1)CCCc1ccn(S(=O)(=O)c3ccccc3)c1-2", "A549/ATCC NSCLC", "%", 82.3],
  ["COc1ccc(OCC(O)CN2CCN(c3ccc(Cl)cc3)CC2)cc1 (stereo not given)", "A549/ATCC NSCLC", "%", 93.2],
  ["Nc1nc(-c2cc3c(cc2Cl)NC(=O)/C3=C/c2ccccc2)cs1", "A549/ATCC NSCLC", "%", 61.5],
  ["CCC1S/C(=N\\N=C(/C)c2cccs2)N(c2ccccc2)C1=O (stereo not given)", "A549/ATCC NSCLC", "%", 89.5]
]}

====

Test system: U251 CNS
procedureDetails: NCI-60 one-dose screen, 48 h (100 = growth as untreated, 0 = no growth, -100 = all killed)
conditionDetails: 10 µM unless noted
Compounds without any hit were thinned out: in the full panel of roughly 83,000, 20% have a hit. Activity calls are given as the source filed them. How the source made its calls: active means growth percent below 10; inactive means the rest.
experimentalReadout: growth

{"columns": ["compound", "experimentalReadout", "observed"],
 "data": [
  ["CC1(C)Cc2c(Br)c(Br)c(Br)c(OCC(O)CN3CCN(c4ccccn4)CC3)c2O1 (stereo unspecified)", "growth", "82.3% (inactive)"],
  ["O=S(=O)(O)c1ccc(F)cc1", "growth", "109% (inactive)"],
  ["Nc1c(C(=O)O)[nH]c(=O)[nH]c1=O", "growth", "91.9% (inactive)"],
  ["Cc1ncc(CO)c(C(=O)O)c1O", "growth", "98.8% (inactive)"],
  ["Nc1nc(Nc2ccc(OCc3cccc(F)c3)cc2)c2c(n1)[nH]c1ccc(O)cc12", "growth", "-91% (active)"],
  ["COc1cc(-c2nc3ccccc3s2)ccc1OCc1nc2n(n1)S(=O)(=O)c1ccccc1N2c1ccccc1", "growth", "98.1% (inactive)"],
  ["COc1ccc(-c2nn(-c3ccc(NC(=O)Nc4ccc(Cl)c(C(F)(F)F)c4)cc3)cc2-c2ccncc2)cc1Cl", "growth", "-7.17% (active)"],
  ["Nc1ncnc2c1c(C(F)(F)F)cn2[C@@H]1O[C@H](CO)[C@@H](O)[C@H]1O", "growth", "3.73% (active)"],
  ["CCOc1ccc(NC(=O)Nc2cc(C(C)C)ccc2C)cc1", "growth", "28.9% (inactive)"],
  ["CC(Cl)(CCl)CS(=O)(=O)c1ccc(Cl)cc1 (stereo unspecified)", "growth", "94.4% (inactive)"],
  ["Cc1ccc[n+](CC(=O)c2cccc3ccccc23)c1", "growth", "106% (inactive)"],
  ["O=C(CSc1nnc(-c2cc3c([nH]c4ccccc43)c(-c3cccc(O)c3)n2)n1-c1ccccc1)c1ccccc1", "growth", "32.9% (inactive)"],
  ["c1coc(CSc2ncnc3nc[nH]c23)c1", "growth", "102% (inactive)"],
  ["O=C(COc1ccc(Cl)cc1)N1CCN(Cc2ccc3c(c2)OCO3)CC1", "growth", "94.3% (inactive)"],
  ["O=C(CNc1cccnc1)Nc1ccc(C(=O)/C=C/c2ccc(Cl)cc2)cc1", "growth", "82.1% (inactive)"],
  ["COc1cc2nc(C(=O)N3CCCCC3)cc(Nc3ccccc3)c2cc1OC", "growth", "102% (inactive)"]
]}

Source: PubChem BioAssay (NCI)
